EXPERIMENTAL DETAILS: Determination of the microsomal half-life, rat liver microsomes
EXPERIMENTAL CONDITIONS: rat, liver microsomes, pH 7.4
Reported microsomal CLint at 0.5 μM values follow for various compounds

# COMPOUND, microsomal CLint at 0.5 μM
records = [
    ("O=C1c2c(cccc2-c2ccc(C(F)(F)F)nc2)CN1CCc1ccc2ccccc2n1", "< 100 µL/min/mg"),
]

// microsomal CLint at 0.5 μM value for O=C1c2c(cccc2N2CC3CNCC3C2)CN1CCc1ccc2ccccc2n1 (stereo not shown) : > 220 µL/min/mg

// microsomal CLint at 0.5 μM value for O=C1c2c(cccc2-c2ccncc2)CN1CCc1nc2ccccn2n1 : < 100 µL/min/mg

// microsomal CLint at 0.5 μM value for O=C1c2c(-c3cc[nH]n3)ccnc2CN1CCc1nc2ccccc2s1 : < 100 µL/min/mg

---

EXPERIMENTAL DETAILS: Determination of the microsomal half-life, human liver microsomes
EXPERIMENTAL CONDITIONS: human, liver microsomes, pH 7.4
Where a name gives a salt, the structure may show the parent alone.
Reported microsomal CLint at 0.5 μM values follow for various compounds

# COMPOUND, microsomal CLint at 0.5 μM
data = [
    ("[2H]C1([2H])OC([2H])([2H])C([2H])([2H])N(c2ccnc3c2C(=O)N(CCc2ccc4ccccc4n2)C3)C1([2H])[2H]", "100 to 220 µL/min/mg"),
    ("Cc1ncccc1-c1cccc2c1C(=O)N(CCc1cn3ccccc3n1)C2", "< 100 µL/min/mg"),
    ("O=C1c2c(N3CCOCC3)ccnc2CN1CCc1cn2cc(F)ccc2n1 [compound 493, trifluoroacetate]", "< 100 µL/min/mg"),
    ("O=C1c2c(cccc2N2CCOCC2)CN1CCc1nc2ccccc2s1 [Example 263, trifluoroacetate]", "100 to 220 µL/min/mg"),
    ("CN(C)C1CCN(c2ccnc3c2C(=O)N(CCc2ccc4ccccc4n2)C3)CC1 [Example 363, hydrochloride]", "< 100 µL/min/mg"),
    ("COc1ccc(-c2cc[nH]n2)c2c1C(=O)N(CCc1cn3ccccc3n1)C2", "< 100 µL/min/mg"),
    ("O=C1c2c(N3CCC4(COC4)C3)ccnc2CN1CCc1nc2ccccc2s1", "< 100 µL/min/mg"),
    ("Cn1c(CCN2Cc3cccc(-c4ccncc4)c3C2=O)nc2ccccc21", "> 220 µL/min/mg"),
]

As a next step, examine the compound that follows.
// microsomal CLint at 0.5 μM value for CCc1ccc(CCN2Cc3nccc(-c4ccncc4)c3C2=O)nc1 [compound 501, trifluoroacetate] : < 100 µL/min/mg

---

Reported microsomal CLint at 0.5 μM values follow for various molecules
EXPERIMENTAL DETAILS: Determination of the microsomal half-life, human liver microsomes
EXPERIMENTAL CONDITIONS: human, liver microsomes, pH 7.4
Counter-ions that a name gives are not always drawn.

The following molecules have reported results that may help.
# MOLECULE, ASSAY METRIC, VAL
rows = [
    ("CCN1CCN(C2CCN(c3cccc4c3C(=O)N(CCc3ccc5ccccc5n3)C4)CC2)CC1 [Example 157, trifluoroacetate]", "microsomal CLint at 0.5 μM", "> 220 µL/min/mg"),
    ("O=C1c2c(cccc2N2C[C@@H]3C[C@H]2CN3)CN1CCc1ccc2ccccc2n1 [Example 101]", "microsomal CLint at 0.5 μM", "< 100 µL/min/mg"),
    ("Cc1ccc2c(c1)nc(CCN1Cc3nccc(-c4cncnc4)c3C1=O)n2C [compound 535]", "microsomal CLint at 0.5 μM", "< 100 µL/min/mg"),
    ("O=C1c2c(cccc2-c2cccnc2)CN1CCc1nc2ncccc2[nH]1 [Example 253]", "microsomal CLint at 0.5 μM", "< 100 µL/min/mg"),
    ("CC1(O)CCC(Nc2ccc(-c3cccc4c3C(=O)N(CCc3ccc5ccccc5n3)C4)cc2Cl)CC1 (stereo not drawn) [Example 155, hydrochloride]", "microsomal CLint at 0.5 μM", "> 220 µL/min/mg"),
    ("Cc1occc1-c1ccnc2c1C(=O)N(CCc1cn3ccccc3n1)C2 [compound 524]", "microsomal CLint at 0.5 μM", "100 to 220 µL/min/mg"),
]

As a next step, examine the molecule that follows.
// microsomal CLint at 0.5 μM value for O=C1c2c(cccc2-c2ccc(F)cc2)CN1CCc1cn2ccccc2n1 [Example 236] : 100 to 220 µL/min/mg
